System Name: D(2) dopamine receptor (Homo sapiens)
Method Notes: Antagonist activity at renilla luciferase-tagged human dopamine D2 receptor expressed in HEK293 cells coexpressing mVenus-fused beta-arrestin 2 assessed as reduction in quinpirole-mediated beta-arrestin 2 recruitment preincubated for 15 mins followed by quinpirole addition measured for 1 sec by BRET assay relative to quinpirole
Format: cell-based
Hi! Could you tag entries with Imax below -40% as satisfied, and those at or above as not satisfied? Much appreciated.

>>> answer_label("CN[C@@H]1Cc2cccc3c2n(c(=O)n3CCCCOc2ccc3c(c2)NC(=O)CC3)C1")
"not satisfied"
>>> answer_label("CCCN(CCC)[C@@H]1Cc2cccc3c2n(c(=O)n3CCC)C1")
"not satisfied"
>>> answer_label("CN[C@@H]1Cc2cccc3c2n(c(=O)n3CCCCCCCCCCCCOc2ccc3c(c2)NC(=O)CC3)C1")
"not satisfied"
>>> answer_label("CN[C@@H]1Cc2cccc3c2n(c(=O)n3CCOCCOCCOCCCCc2ccccc2)C1")
"satisfied"
>>> answer_label("CN[C@@H]1Cc2cccc3c2n(c(=O)n3CCOCCOCCOCCOc2ccc3c(c2)NC(=O)CC3)C1")
"satisfied"

*Q* Hi there! Is Imax for CN[C@@H]1Cc2cccc3c2n(c(=O)n3CCOCCOCCCCc2ccccc2)C1 below -40%, do you know?
*A* not satisfied

*Q* Hi there! Is Imax for CCCN(CCCCNC(=O)c1cc2ccccc2[nH]1)[C@@H]1Cc2cccc3c2n(c(=O)n3CCC)C1 below -40%, do you know?
*A* not satisfied

====

System Name: D(3) dopamine receptor (Homo sapiens, UniProt P35462)
Sequence (P35462 whole entry): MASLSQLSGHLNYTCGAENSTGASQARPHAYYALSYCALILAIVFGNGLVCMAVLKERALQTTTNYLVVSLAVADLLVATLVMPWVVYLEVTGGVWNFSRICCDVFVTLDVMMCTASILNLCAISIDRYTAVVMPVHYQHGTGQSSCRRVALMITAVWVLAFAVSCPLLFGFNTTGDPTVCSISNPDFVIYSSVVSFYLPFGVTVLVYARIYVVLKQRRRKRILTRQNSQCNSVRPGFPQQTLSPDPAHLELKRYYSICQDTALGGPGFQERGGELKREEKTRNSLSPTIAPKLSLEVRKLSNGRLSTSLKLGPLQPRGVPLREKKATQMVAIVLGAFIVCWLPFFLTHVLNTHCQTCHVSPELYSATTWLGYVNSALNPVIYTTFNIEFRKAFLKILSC
Method Notes: biochemical
The entries below are paired with their reported pKi.
Scale for pKi: -log10 of concentration given in mol/L; no unit attached.

>>> val("CN[C@@H]1Cc2cccc3c2n(c(=O)n3CCCCCCCCCCOCCCCc2ccccc2)C1")
6.95
>>> val("CN[C@@H]1Cc2cccc3c2n(c(=O)n3CCCCCCCCCCCCOCCCCc2ccccc2)C1")
6.85
>>> val("CCCn1c(=O)n2c3c(cccc31)C[C@@H](N(C)CCCCNC(=O)c1cc3ccccc3[nH]1)C2")
8.61

Attention now turns to another entry.
*Q* State its pKi: CCCN[C@@H]1Cc2cccc3c2n(c(=O)n3CCCCOCCCCc2ccccc2)C1
*A* 7.03

====

System Name: D(2) dopamine receptor (Homo sapiens, UniProt P14416)
Sequence (P14416 whole entry, the tested form may be a part): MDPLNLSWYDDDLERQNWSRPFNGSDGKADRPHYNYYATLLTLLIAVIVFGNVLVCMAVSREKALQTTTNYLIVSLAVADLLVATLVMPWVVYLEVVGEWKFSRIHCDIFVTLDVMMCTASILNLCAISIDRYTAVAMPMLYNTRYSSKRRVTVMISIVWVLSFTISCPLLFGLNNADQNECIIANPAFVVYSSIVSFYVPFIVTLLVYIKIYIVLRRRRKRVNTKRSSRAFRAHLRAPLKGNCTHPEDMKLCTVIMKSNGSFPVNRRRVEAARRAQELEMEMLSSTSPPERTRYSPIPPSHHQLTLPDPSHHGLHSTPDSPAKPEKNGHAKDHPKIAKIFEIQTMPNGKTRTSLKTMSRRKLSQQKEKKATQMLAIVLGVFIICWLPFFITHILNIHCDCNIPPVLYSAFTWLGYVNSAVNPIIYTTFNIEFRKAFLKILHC
Method Notes: Antagonist activity at human dopamine D2 receptor expressed in HEK293 cells coexpressing renilla luciferase-fused GalphaoA/GFP10-fused Ggamma2 assessed as inhibition of quinpirole-induced GalphaoA activation by BRET assay relative to quinpirole
Assay type: cell-based
Endpoint Label: Imax (%)
Quick reminder: number only, in %, skip the unit.

>>> val("CN[C@@H]1Cc2cccc3c2n(c(=O)n3CCCCCCCCCCCCOc2ccc3c(c2)NC(=O)CC3)C1")
-71
>>> val("CN[C@@H]1Cc2cccc3c2n(c(=O)n3CCOCCOCCCCc2ccccc2)C1")
-36
>>> val("CCCN(CCC)[C@@H]1Cc2cccc3c2n(c(=O)n3CCC)C1")
-24
>>> val("CN[C@@H]1Cc2cccc3c2n(c(=O)n3CCCCCCCCOCCCCc2ccccc2)C1")
-67
>>> val("CCCN(CCC)[C@@H]1Cc2cccc3c2n(c(=O)n3CCCCNC(=O)c2cc3ccccc3[nH]2)C1")
-27

Attention now turns to another entry.
*Q* State its Imax: CN[C@@H]1Cc2cccc3c2n(c(=O)n3CCCCOc2ccc3c(c2)NC(=O)CC3)C1
*A* -64
